- experimental.target: PIK3CB (Human) (UniProt P42338)
- Sequence (P42338 whole entry, looked up): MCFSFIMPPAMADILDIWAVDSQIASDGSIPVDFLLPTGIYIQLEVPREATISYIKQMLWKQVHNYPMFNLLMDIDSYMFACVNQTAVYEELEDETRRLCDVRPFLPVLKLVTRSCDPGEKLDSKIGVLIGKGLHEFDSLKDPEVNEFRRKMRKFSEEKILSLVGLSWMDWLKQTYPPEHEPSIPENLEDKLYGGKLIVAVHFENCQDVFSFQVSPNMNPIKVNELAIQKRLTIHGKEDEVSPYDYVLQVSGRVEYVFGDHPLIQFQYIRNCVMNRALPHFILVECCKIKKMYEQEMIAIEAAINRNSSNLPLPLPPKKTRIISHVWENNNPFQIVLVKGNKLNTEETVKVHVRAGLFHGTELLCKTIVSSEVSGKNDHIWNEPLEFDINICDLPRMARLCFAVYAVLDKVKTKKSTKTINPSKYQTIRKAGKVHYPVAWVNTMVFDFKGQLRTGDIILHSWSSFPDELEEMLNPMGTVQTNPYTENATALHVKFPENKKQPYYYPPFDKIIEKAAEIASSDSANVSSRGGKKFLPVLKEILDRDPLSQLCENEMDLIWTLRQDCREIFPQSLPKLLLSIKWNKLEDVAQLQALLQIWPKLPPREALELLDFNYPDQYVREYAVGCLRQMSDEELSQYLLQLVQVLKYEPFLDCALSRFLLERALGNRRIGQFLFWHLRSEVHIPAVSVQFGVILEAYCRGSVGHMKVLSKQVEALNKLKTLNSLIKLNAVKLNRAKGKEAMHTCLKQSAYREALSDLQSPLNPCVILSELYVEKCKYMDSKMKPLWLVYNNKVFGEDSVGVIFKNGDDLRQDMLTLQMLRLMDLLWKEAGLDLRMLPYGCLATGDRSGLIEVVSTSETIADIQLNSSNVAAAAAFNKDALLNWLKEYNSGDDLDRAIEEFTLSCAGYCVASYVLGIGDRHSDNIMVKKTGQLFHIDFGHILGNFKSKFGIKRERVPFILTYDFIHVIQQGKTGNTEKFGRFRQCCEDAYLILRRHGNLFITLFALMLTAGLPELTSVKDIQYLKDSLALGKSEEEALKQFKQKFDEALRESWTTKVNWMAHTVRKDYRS
Assignment: determine reported IC50 for the given compounds.

Field IC50 (entry C[C@H](NC(=O)c1c(N)nn2cccnc12)c1cc2cccc(C#CC3CC3)c2c(=O)n1-c1ccccc1 ) reads 1 to 5 µM

Field IC50 (entry C[C@H](NC(=O)c1c(N)nn2cccnc12)c1cc2cccc(C#CC(C)(C)C)c2c(=O)n1-c1ccccc1 ) reads 5 to 10 µM

Field IC50 (entry CCOC(C#Cc1cccc2cc([C@H](C)NC(=O)c3c(N)nn4cccnc34)n(-c3ccccc3)c(=O)c12)OCC ) reads 5 to 10 µM

Field IC50 (entry C[C@H](NC(=O)c1c(N)nn2cccnc12)c1cc2cccc(C#Cc3cnn(C)c3)c2c(=O)n1-c1ccc(F)c(F)c1 ) reads 5 to 10 µM

Field IC50 (entry COCC#Cc1cccc2cc([C@H](C)NC(=O)c3c(N)nn4cccnc34)n(-c3ccccc3)c(=O)c12 ) reads 1 to 5 µM

Field IC50 (entry C#Cc1cccc2nc([C@H](C)NC(=O)c3c(N)nn4cccnc34)n(-c3ccc(F)cc3)c(=O)c12 ) reads 5 to 10 µM

Field IC50 (entry Cc1ccnc2c(C(=O)N[C@@H](C)c3cc4cccc(C#Cc5cnn(C)c5)c4c(=O)n3-c3ccccc3)cnn12 ) reads 5 to 10 µM

Field IC50 (entry Cc1c(C#Cc2cccc3cc([C@H](C)NC(=O)c4c(N)nn5cccnc45)n(-c4ccccc4)c(=O)c23)cnn1C ) reads 5 to 10 µM

Field IC50 (entry C[C@H](NC(=O)c1c(N)nn2cccnc12)c1nc2cccc(C#Cc3cnn(C)c3)c2c(=O)n1-c1ccccc1 ) reads 5 to 10 µM

Field IC50 (entry Cc1nc(C)c(C#Cc2cccc3cc([C@H](C)NC(=O)c4c(N)nn5cccnc45)n(-c4ccccc4)c(=O)c23)s1 ) reads 5 to 10 µM

Field IC50 (entry COc1ncc(C#Cc2cccc3cc([C@H](C)NC(=O)c4c(N)nn5cccnc45)n(-c4ccccc4)c(=O)c23)cn1 ) reads 5 to 10 µM

Field IC50 (entry C#Cc1cccc2nc([C@H](C)NC(=O)c3c(N)nn4cccnc34)n(-c3ccccc3)c(=O)c12 ) reads 1 to 5 µM

Field IC50 (entry C[C@H](NC(=O)c1c(N)nn2cccnc12)c1cc2cccc(C#Cc3ccncc3)c2c(=O)n1-c1ccccc1 ) reads 5 to 10 µM

Field IC50 (entry C#Cc1cccc2nc([C@H](C)NC(=O)c3nccnc3N)n(-c3ccc(F)cc3)c(=O)c12 ) reads 1 to 5 µM

Field IC50 (entry C[C@H](NC(=O)c1c(N)nn2cccnc12)c1cc2cccc(C#CCN3CCCC3=O)c2c(=O)n1-c1ccccc1 ) reads 1 to 5 µM

Field IC50 (entry Cc1cccc(-n2c([C@H](C)NC(=O)c3c(N)nn4cccnc34)cc3cccc(C#Cc4cnn(C)c4)c3c2=O)c1 ) reads 5 to 10 µM

Field IC50 (entry C[C@H](NC(=O)c1c(N)nn2cccnc12)c1cc2cccc(C#CC3(O)CN4CCC3CC4)c2c(=O)n1-c1ccccc1 (stereo not given in full) ) reads 5 to 10 µM

Field IC50 (entry C#Cc1cccc2nc([C@H](C)NC(=O)c3nccnc3N)n(-c3ccccc3)c(=O)c12 ) reads 0.001 to 0.5 µM

Field IC50 (entry C[C@H](NC(=O)c1c(N)nn2cccnc12)c1cc2cccc(C#CC3CCOCC3)c2c(=O)n1-c1ccccc1 ) reads 5 to 10 µM

Field IC50 (entry Cc1cc(C)n2nc(N)c(C(=O)N[C@@H](C)c3cc4cccc(C#Cc5cnn(C)c5)c4c(=O)n3-c3ccccc3)c2n1 ) reads 5 to 10 µM

Field IC50 (entry C[C@H](NC(=O)c1c(N)nn2cccnc12)c1cc2cccc(C#Cc3cnn(C)c3)c2c(=O)n1C1CCCCC1 ) reads 5 to 10 µM

Field IC50 (entry CNS(=O)(=O)CCn1c([C@H](C)NC(=O)c2c(N)nn3cccnc23)cc2cccc(C#Cc3cnn(C)c3)c2c1=O ) reads 1 to 5 µM

Field IC50 (entry C[C@H](NC(=O)c1c(N)nn2cccnc12)c1cc2cccc(C#Cc3cnn(C)c3)c2c(=O)n1CCS(=O)(=O)N(C)C ) reads 1 to 5 µM

Field IC50 (entry COc1ccc(C#Cc2cccc3cc([C@H](C)NC(=O)c4c(N)nn5cccnc45)n(-c4ccccc4)c(=O)c23)cn1 ) reads 5 to 10 µM

Field IC50 (entry CC#Cc1cccc2cc(C(C)NC(=O)c3c(N)nn4cccnc34)c(-c3ccccc3)nc12 (stereo not given) ) reads 1 to 5 µM
